- Tested on: juvenile hormone receptor of Drosophila melanogaster (DmMET)
- METHOD_NOTES: Yeast reporter (β-galactosidase) assay, transformants with DmMET and DmTai
- Format: cell-based
- MEASUREMENT_CONTEXT: Yeast 8 of Invention (SEQ ID NO: 2 x4, DmMET, DmTai); test substance 10 μM
Task for the reader: assign each of the following compounds its reported Increase in induction.

Query string: What measured Increase in induction is associated with CCCCCCCCCc1ccc(O)cc1 [4-nonyl phenol] on juvenile hormone receptor of Drosophila melanogaster (DmMET)?
Result string: 1.81

Query string: Quick check: Increase in induction on juvenile hormone receptor of Drosophila melanogaster (DmMET), item COC(=O)/C=C(\C)CC/C=C(\C)CC[C@H]1OC1(C)C [Juvenile hormone III, juvenile hormone III] ?
Result string: 1.45

Query string: # get_value(readout= Increase in induction, system= juvenile hormone receptor of Drosophila melanogaster (DmMET)) for C[C@]12CC[C@H]3[C@@H](CCC4=CC(=O)CC[C@@]43C)[C@@H]1CC[C@@H]2O [Testosterone, testosterone]
Result string: 0.98

Query string: Field: Increase in induction (juvenile hormone receptor of Drosophila melanogaster (DmMET)). Entry: Clc1ccc(C(c2ccc(Cl)cc2)C(Cl)(Cl)Cl)cc1 [DDT]
Result string: 0.37

---

- Test system: juvenile hormone receptor of Drosophila melanogaster (DmMET)
- METHOD_NOTES: Yeast reporter (β-galactosidase) assay, transformants with DmMET and DmTai
- Format: cell-based
- MEASUREMENT_CONTEXT: Yeast 8 of Invention (SEQ ID NO: 2 x4, DmMET, DmTai); test substance 10 μM
PROPERTY_MEASURED: Increase in induction
Number only, please.

Query string: Find the measured Increase in induction: item ClC1=C(Cl)[C@]2(Cl)[C@@H]3[C@@H]4C[C@@H]([C@H]5O[C@@H]45)[C@@H]3[C@@]1(Cl)C2(Cl)Cl , target or system juvenile hormone receptor of Drosophila melanogaster (DmMET).
Result string: 0.89

Query string: Provide the documented Increase in induction with juvenile hormone receptor of Drosophila melanogaster (DmMET) as the system for ClC(Cl)=C(c1ccc(Cl)cc1)c1ccc(Cl)cc1
Result string: 1.23

Query string: # value lookup — system juvenile hormone receptor of Drosophila melanogaster (DmMET), readout Increase in induction, item C[C@]12CC[C@@H]3c4ccc(O)cc4CC[C@H]3[C@@H]1CC[C@@H]2O
Result string: 1.01

Query string: Hi! What's the reported Increase in induction for CC(C)(c1ccc(O)cc1)c1ccc(O)cc1 on juvenile hormone receptor of Drosophila melanogaster (DmMET)?
Result string: 0.52
